Measured Ki accompanies every entry in the list below.
subject-of-test: human 5-hydroxytryptamine2C (h5HT2C) receptor (Homo sapiens)
Sequence (P28335 33-458): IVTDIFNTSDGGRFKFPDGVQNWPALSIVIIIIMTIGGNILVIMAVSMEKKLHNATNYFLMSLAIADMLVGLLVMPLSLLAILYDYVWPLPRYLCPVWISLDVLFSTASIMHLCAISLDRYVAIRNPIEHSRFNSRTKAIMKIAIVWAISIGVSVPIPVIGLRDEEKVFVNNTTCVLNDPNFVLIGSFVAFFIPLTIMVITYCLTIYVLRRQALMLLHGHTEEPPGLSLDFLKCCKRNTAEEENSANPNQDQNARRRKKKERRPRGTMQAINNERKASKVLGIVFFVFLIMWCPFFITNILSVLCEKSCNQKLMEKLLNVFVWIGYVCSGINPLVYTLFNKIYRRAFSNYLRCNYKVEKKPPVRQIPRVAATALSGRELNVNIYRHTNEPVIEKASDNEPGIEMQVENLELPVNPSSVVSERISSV
test-name: 5HT2C receptor binding test procedure ([125I]DOI displacement, CHO cell membranes)
protocol-conditions: 5-HT2C Affinity DOI/Agonist Binding (Ki, μM), [125I]DOI agonist binding
readout-label: Ki (µM)

[[record]]
molecule = "C[C@@H]1NCCN2c3c1cccc3[C@@H]1CCC[C@@H]12 (relative stereo) [Example 12]"
subject_of_test = "human 5-hydroxytryptamine2C (h5HT2C) receptor (Homo sapiens)"
readout_label = "Ki"
relation_operator = ">"
endpoint_value = 5

[[record]]
molecule = "OC[C@H]1CN2c3c(cccc3C3CCCC32)CN1 (single isomer, unassigned) [Example 11]"
subject_of_test = "human 5-hydroxytryptamine2C (h5HT2C) receptor (Homo sapiens)"
readout_label = "Ki"
relation_operator = "="
endpoint_value = 1.9

[[record]]
molecule = "CC1CN2c3c(cccc3C3CCCC32)CN1 (single isomer, unassigned) [Example 10]"
subject_of_test = "human 5-hydroxytryptamine2C (h5HT2C) receptor (Homo sapiens)"
readout_label = "Ki"
relation_operator = "="
endpoint_value = 4.3

[[record]]
molecule = "CC1CN2c3c(cccc3C3CCCC32)CN1 (single isomer, unassigned) [Example 7]"
subject_of_test = "human 5-hydroxytryptamine2C (h5HT2C) receptor (Homo sapiens)"
readout_label = "Ki"
relation_operator = "="
endpoint_value = 6

[[record]]
molecule = "CC1CN2c3c(cccc3C3CCCC32)CN1 (single isomer, unassigned) [Example 8]"
subject_of_test = "human 5-hydroxytryptamine2C (h5HT2C) receptor (Homo sapiens)"
readout_label = "Ki"
relation_operator = "="
endpoint_value = 5.9

[[record]]
molecule = "C[C@H]1NCCN2c3c1cccc3[C@@H]1CCC[C@@H]12 (relative stereo) [Example 13]"
subject_of_test = "human 5-hydroxytryptamine2C (h5HT2C) receptor (Homo sapiens)"
readout_label = "Ki"
relation_operator = "="
endpoint_value = 0.31

[[record]]
molecule = "CC1CN2c3c(cccc3C3CCCC32)CN1 (single isomer, unassigned) [Example 9]"
subject_of_test = "human 5-hydroxytryptamine2C (h5HT2C) receptor (Homo sapiens)"
readout_label = "Ki"
relation_operator = "="
endpoint_value = 0.91


Data origin, for the record: patent US20080009480A1
